Biological target: T1, TNFR1 (Homo sapiens, UniProt P19438)
T1 chain: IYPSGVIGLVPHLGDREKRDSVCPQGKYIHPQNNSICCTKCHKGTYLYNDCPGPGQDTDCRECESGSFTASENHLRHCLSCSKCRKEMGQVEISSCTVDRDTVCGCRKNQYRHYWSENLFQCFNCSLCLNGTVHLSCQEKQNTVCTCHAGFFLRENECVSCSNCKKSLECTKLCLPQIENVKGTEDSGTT
Test: yeast display SC50
Recorded apparent Kd (screen) for the following binders
Please give the number followed by its unit.

Reference set (3 entries):
binder	test-result
A67H (designed binder) SMEEEVEKAAKEYEKKKKEAIEKHLEKLKAKDKEAAERFLKELEEAAKEYAKDEAKTMSEEEAKRRHKKYKEKVLLSELSEEEQKEIKEAEEKLVRTILKYVEEAAK	10.4 nM
I98A (designed binder) SMEEEVEKAAKEYEKKKKEAIEKHLEKLKAKDKEAAERFLKELEEAAKEYAKDEAKTMSEEEAKRRAKKYKEKVLLSELSEEEQKEIKEAEEKLVRTALKYVEEAAK	1.69 nM
K56G (designed binder) SMEEEVEKAAKEYEKKKKEAIEKHLEKLKAKDKEAAERFLKELEEAAKEYAKDEAGTMSEEEAKRRAKKYKEKVLLSELSEEEQKEIKEAEEKLVRTILKYVEEAAK	7.07 nM

Incoming: Retrieve apparent Kd (screen) measured for R66T (designed binder) SMEEEVEKAAKEYEKKKKEAIEKHLEKLKAKDKEAAERFLKELEEAAKEYAKDEAKTMSEEEAKRTAKKYKEKVLLSELSEEEQKEIKEAEEKLVRTILKYVEEAAK and print it.
Outgoing: 16.7 nM

Incoming: Retrieve apparent Kd (screen) measured for A63W (designed binder) SMEEEVEKAAKEYEKKKKEAIEKHLEKLKAKDKEAAERFLKELEEAAKEYAKDEAKTMSEEEWKRRAKKYKEKVLLSELSEEEQKEIKEAEEKLVRTILKYVEEAAK and print it.
Outgoing: 1.54 nM

Values from paper PMC12416549
